Test system: ALS7 (C9orf72) cell-derived motor neurons
Assay: Cytotoxicity: intracellular ATP level (CellTiter-Glo)
Assay type: cell-based, human
Conditions: After 48 hr, 10 μM
Quick reference for ATP level % compared to negative control among some compounds
Quantity: ATP level % compared to negative control (%)

1. COc1cc(Cl)ccc1-c1ncnc(Nc2cccc(CS(N)(=O)=O)c2)n1; 69
2. COc1ccccc1-c1ncnc(Nc2cccc(CS(N)(=O)=O)c2)n1; 53
3. CCOC(=O)N=S(C)(=O)Cc1cccc(Nc2ncnc(-c3cccc4c3OCCO4)n2)c1 (centres unmarked); 124
4. CCOC(=O)N=S(C)(=O)Cc1cccc(Nc2ncnc(-c3cccc4c3OCC4)n2)c1 (centres unmarked); 112
5. COc1cc(F)ccc1-c1ncnc(Nc2cccc(CS(C)(=N)=O)c2)n1 (centres unmarked); 122
6. NS(=O)(=O)Cc1cccc(Nc2ncnc(-c3ccccc3OCc3ccccc3)n2)c1.O=C(O)C(F)(F)F; 115
7. NS(=O)(=O)Cc1cccc(Nc2ncnc(-c3ccccc3OCc3ccccc3)n2)c1; 102
8. CS(=N)(=O)Cc1cccc(Nc2ncnc(-c3ccccc3OCc3ccc(Cl)c(Cl)c3)n2)c1 (centres unmarked); 108

====

System: ALS7 (C9orf72) cell-derived motor neurons
Experiment: RNA foci inhibitory activity (FISH with Cy3 probe, high-content analysis)
Assay type: cell-based, human
Conditions: 10 μM test compound, one day after addition, vs DMSO
Quantity: RNA foci inhibitory activity %

1) NS(=O)(=O)Cc1cccc(Nc2ncnc(-c3ccccc3OCc3ccccc3)n2)c1.O=C(O)C(F)(F)F [Compound No. 4a]; 45%
2) COc1cc(F)ccc1-c1ncnc(Nc2cccc(CS(C)(=N)=O)c2)n1 (stereo not shown) [Compound No. 1]; 46%
3) CS(=N)(=O)Cc1cccc(Nc2ncnc(-c3ccccc3OCc3ccc(Cl)c(Cl)c3)n2)c1 (stereo not shown) [Compound No. 5]; 50%
4) COc1ccccc1-c1ncnc(Nc2cccc(CS(N)(=O)=O)c2)n1 [Compound No. 2]; 55%

====

Quick reference for ATP level % compared to negative control among some molecules
Test system: ALS7 (C9orf72) cell-derived motor neurons
Assay: Cytotoxicity: intracellular ATP level (CellTiter-Glo)
Format: cell-based, human
Conditions: After 24 hr, 10 μM
Quantity: ATP level % compared to negative control (%)

1) CCOC(=O)N=S(C)(=O)Cc1cccc(Nc2ncnc(-c3cccc4c3OCC4)n2)c1 (centres unmarked) [Compound No. 7]; 126
2) NS(=O)(=O)Cc1cccc(Nc2ncnc(-c3ccccc3OCc3ccccc3)n2)c1.O=C(O)C(F)(F)F [Compound No. 4a]; 140
3) COc1ccccc1-c1ncnc(Nc2cccc(CS(N)(=O)=O)c2)n1 [Compound No. 2]; 101
4) CCOC(=O)N=S(C)(=O)Cc1cccc(Nc2ncnc(-c3cccc4c3OCCO4)n2)c1 (centres unmarked) [Compound No. 6]; 130
5) COc1cc(F)ccc1-c1ncnc(Nc2cccc(CS(C)(=N)=O)c2)n1 (centres unmarked) [Compound No. 1]; 134
6) COc1cc(Cl)ccc1-c1ncnc(Nc2cccc(CS(N)(=O)=O)c2)n1 [Compound No. 3]; 106
7) NS(=O)(=O)Cc1cccc(Nc2ncnc(-c3ccccc3OCc3ccccc3)n2)c1 [Compound No. 4b]; 134
8) CS(=N)(=O)Cc1cccc(Nc2ncnc(-c3ccccc3OCc3ccc(Cl)c(Cl)c3)n2)c1 (centres unmarked) [Compound No. 5]; 131

====

Tested on: ALS7 (C9orf72) cell-derived motor neurons
Assay: Cytotoxicity: intracellular ATP level (CellTiter-Glo)
Type: cell-based, human
Settings: After 48 hr, 1 μM
Quick reference for ATP level % compared to negative control among some compounds
Quantity: ATP level % compared to negative control (%)

1) COc1ccccc1-c1ncnc(Nc2cccc(CS(N)(=O)=O)c2)n1; 99
2) NS(=O)(=O)Cc1cccc(Nc2ncnc(-c3ccccc3OCc3ccccc3)n2)c1; 73
3) COc1cc(Cl)ccc1-c1ncnc(Nc2cccc(CS(N)(=O)=O)c2)n1; 105
4) CCOC(=O)N=S(C)(=O)Cc1cccc(Nc2ncnc(-c3cccc4c3OCCO4)n2)c1 (centres unmarked); 77
5) COc1cc(F)ccc1-c1ncnc(Nc2cccc(CS(C)(=N)=O)c2)n1 (centres unmarked); 91
6) CCOC(=O)N=S(C)(=O)Cc1cccc(Nc2ncnc(-c3cccc4c3OCC4)n2)c1 (centres unmarked); 86
7) CS(=N)(=O)Cc1cccc(Nc2ncnc(-c3ccccc3OCc3ccc(Cl)c(Cl)c3)n2)c1 (centres unmarked); 83
8) NS(=O)(=O)Cc1cccc(Nc2ncnc(-c3ccccc3OCc3ccccc3)n2)c1.O=C(O)C(F)(F)F; 80

====

Test system: ALS7 (C9orf72) cell-derived motor neurons
Test: Cytotoxicity: intracellular ATP level (CellTiter-Glo)
Assay type: cell-based, human
Conditions: After 48 hr, 3 μM
Method: In order to examine the cytotoxicity of the test compound, the intracellular ATP level was measured. ALS7 (C9orf72) cells were seeded on an assay plate in the same procedure as in Experimental Example 1. […] The degree of the effect on the intracellular ATP level in the test compound-treated cells was defined as the ATP level of the test compound compared with the negative control, which was calculated by the following formula. […]
Quantity: ATP level % compared to negative control (%)

1) CCOC(=O)N=S(C)(=O)Cc1cccc(Nc2ncnc(-c3cccc4c3OCCO4)n2)c1 (centres unmarked) [Compound No. 6]; 71
2) COc1cc(Cl)ccc1-c1ncnc(Nc2cccc(CS(N)(=O)=O)c2)n1 [Compound No. 3]; 87
3) COc1ccccc1-c1ncnc(Nc2cccc(CS(N)(=O)=O)c2)n1 [Compound No. 2]; 74
4) NS(=O)(=O)Cc1cccc(Nc2ncnc(-c3ccccc3OCc3ccccc3)n2)c1.O=C(O)C(F)(F)F [Compound No. 4a]; 101
5) COc1cc(F)ccc1-c1ncnc(Nc2cccc(CS(C)(=N)=O)c2)n1 (centres unmarked) [Compound No. 1]; 89
6) NS(=O)(=O)Cc1cccc(Nc2ncnc(-c3ccccc3OCc3ccccc3)n2)c1 [Compound No. 4b]; 97
7) CCOC(=O)N=S(C)(=O)Cc1cccc(Nc2ncnc(-c3cccc4c3OCC4)n2)c1 (centres unmarked) [Compound No. 7]; 87
8) CS(=N)(=O)Cc1cccc(Nc2ncnc(-c3ccccc3OCc3ccc(Cl)c(Cl)c3)n2)c1 (centres unmarked) [Compound No. 5]; 94
